Just for reference, ChEMBL document CHEMBL5252632 is where these values come from.

- system: UniProt:P37840
- measurement_description: Binding affinity to human recombinant Alpha-synuclein assessed as dissociation constant by fluorometric method
pKd: −log10 of the molar value.
// pKd lookup, one value per entry
attribute_measured: pKd

                                test_smiles  recorded_value
0       O=S(=O)(O)c1ccc2cc(Nc3ccccc3)ccc2c1            5.06
1  O=S(=O)(O)c1cccc2c(-c3ccc(Nc4ccccc4)c4c(S(=O)(=O)O)cccc34)ccc(Nc3ccccc3)c12            5.07
